# tested_on: Neuropeptide Y receptor type 2 (Rattus norvegicus, UniProt Q9ERC0)
# Sequence (Q9ERC0 whole entry): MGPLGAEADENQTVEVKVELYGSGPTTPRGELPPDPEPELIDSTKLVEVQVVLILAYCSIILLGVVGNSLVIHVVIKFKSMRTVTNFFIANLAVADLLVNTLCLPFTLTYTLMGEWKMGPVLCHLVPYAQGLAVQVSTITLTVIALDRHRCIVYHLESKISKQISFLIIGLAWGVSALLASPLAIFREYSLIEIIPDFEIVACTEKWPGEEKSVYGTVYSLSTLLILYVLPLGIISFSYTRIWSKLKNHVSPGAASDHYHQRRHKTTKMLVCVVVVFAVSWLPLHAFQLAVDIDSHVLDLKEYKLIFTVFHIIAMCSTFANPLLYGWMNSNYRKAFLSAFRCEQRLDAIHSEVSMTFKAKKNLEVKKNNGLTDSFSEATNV
# assay_notes: Antisecretory potency, affinity for intestinal PYY of rat jejunum by using short circuit current (SCC) method.
# Assay type: tissue-based
metric_name: IC50 (nM)
Answers are plain numbers, in nM.

Reported IC50 ( CC(=O)N[C@@H](C)C(=O)N[C@@H](CO)C(=O)N[C@@H](CC(C)C)C(=O)N[C@@H](CCCN=C(N)N)C(=O)N[C@@H](Cc1c[nH]cn1)C(=O)N[C@@H](Cc1ccc(O)cc1)C(=O)N[C@@H](CC(C)C)C(=O)N[C@@H](CC(N)=O)C(=O)N[C@@H](Cc1c[nH]c2ccccc12)C(=O)N[C@H](C(=O)N[C@H](C(=O)N[C@@H](CCCN=C(N)N)C(=O)N[C@@H](CCC(N)=O)C(=O)N[C@@H](CCCN=C(N)N)C(=O)N[C@@H](Cc1ccc(O)cc1)C(N)=O)[C@@H](C)O)C(C)C ) = 0.6

---

# tested_on: Neuropeptide Y receptor type 1 (Homo sapiens)
# Sequence (P25929 whole entry): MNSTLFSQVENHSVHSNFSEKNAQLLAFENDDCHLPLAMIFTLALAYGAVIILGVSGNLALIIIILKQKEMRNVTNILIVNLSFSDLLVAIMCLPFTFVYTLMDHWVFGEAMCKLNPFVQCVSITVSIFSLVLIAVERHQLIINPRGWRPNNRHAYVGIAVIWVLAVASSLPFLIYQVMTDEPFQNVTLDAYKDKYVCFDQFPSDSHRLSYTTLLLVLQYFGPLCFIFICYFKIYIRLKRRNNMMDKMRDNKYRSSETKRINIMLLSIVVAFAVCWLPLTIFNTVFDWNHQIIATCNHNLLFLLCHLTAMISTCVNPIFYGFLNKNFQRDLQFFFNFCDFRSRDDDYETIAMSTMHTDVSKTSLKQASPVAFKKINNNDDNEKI
# assay_notes: Affinity against Neuropeptide Y receptor Y1 in SK-N-MC cell line
# Type: cell-based
Where a SMILES comes first, the peptide text is derived from it. [ ]: non-standard residue; d: D form. The star is where a group is joined. X1 = C[C@@H](O)[C@@H](CN[C@@H](CCCN=C(N)N)C(=O)N[C@@H](CCC(N)=O)C(=O)N[C@@H](CCCN=C(N)N)C(=O)N[C@@H](Cc1ccc(O)cc1)C(N)=O)N*; Dip = N[C@H](C(=O)O)C(c1ccccc1)c1ccccc1; 1Nal = N[C@@H](Cc1cccc2ccccc12)C(=O)O
metric_name: IC50 (µM)
Give bare numbers, in µM.

# count of solved cases: 2
CC(=O)N[C@@H](C)C(=O)N[C@@H](CO)C(=O)N[C@@H](CC(C)C)C(=O)N[C@@H](CCCN=C(N)N)C(=O)N[C@@H](Cc1c[nH]cn1)C(=O)N[C@@H](Cc1ccc(O)cc1)C(=O)N[C@@H](CC(C)C)C(=O)N[C@@H](CC(N)=O)C(=O)N[C@@H](CC(C)C)C(=O)N[C@H](C(=O)N[C@H](CN[C@@H](CCCN=C(N)N)C(=O)N[C@@H](CCC(N)=O)C(=O)N[C@@H](CCCN=C(N)N)C(=O)N[C@@H](Cc1ccc(O)cc1)C(N)=O)[C@@H](C)O)C(C)C (Ac-ASLRHYLNLV-X1) ... 1.09
CC(=O)N[C@@H](C)C(=O)N[C@@H](CO)C(=O)N[C@@H](CC(C)C)C(=O)N[C@@H](CCCN=C(N)N)C(=O)N[C@@H](Cc1c[nH]cn1)C(=O)N[C@@H](Cc1cccc2ccccc12)C(=O)N[C@@H](CC(C)C)C(=O)N[C@@H](CC(N)=O)C(=O)N[C@@H](CC(C)C)C(=O)N[C@H](C(=O)N[C@H](C(=O)N[C@@H](CCCN=C(N)N)C(=O)N[C@@H](CCC(N)=O)C(=O)N[C@@H](CCCN=C(N)N)C(=O)N[C@@H](Cc1ccc(O)cc1)C(N)=O)[C@@H](C)O)C(C)C (Ac-ASLRH[1Nal]LNLVTRQRY-NH2) ... 0.0883

Here is the next item to consider.
The reported IC50 value, Neuropeptide Y receptor type 1 (Homo sapiens), for CC(=O)N[C@@H](C)C(=O)N[C@@H](CO)C(=O)N[C@@H](CC(C)C)C(=O)N[C@@H](CCCNC(=N)N)C(=O)N[C@@H](Cc1cnc[nH]1)C(=O)N[C@@H](Cc1ccc(O)cc1)C(=O)N[C@@H](CC(C)C)C(=O)N[C@@H](CC(N)=O)C(=O)N[C@@H](CC(C)C)C(=O)N[C@H](C(=O)N[C@H](C(=O)N[C@@H](CCCNC(=N)N)C(=O)N[C@@H](CCC(N)=O)C(=O)N[C@@H](CCCNC(=N)N)C(=O)N[C@H](C(N)=O)C(c1ccccc1)c1ccccc1)[C@@H](C)O)C(C)C (Ac-ASLRHYLNLVTRQR[Dip]-NH2) reads 1.25

---

Please respond with reported pIC50 for every item in the list.
# tested_on: Neuropeptide Y receptor type 2 (Homo sapiens, UniProt P49146)
# Sequence (P49146 whole entry): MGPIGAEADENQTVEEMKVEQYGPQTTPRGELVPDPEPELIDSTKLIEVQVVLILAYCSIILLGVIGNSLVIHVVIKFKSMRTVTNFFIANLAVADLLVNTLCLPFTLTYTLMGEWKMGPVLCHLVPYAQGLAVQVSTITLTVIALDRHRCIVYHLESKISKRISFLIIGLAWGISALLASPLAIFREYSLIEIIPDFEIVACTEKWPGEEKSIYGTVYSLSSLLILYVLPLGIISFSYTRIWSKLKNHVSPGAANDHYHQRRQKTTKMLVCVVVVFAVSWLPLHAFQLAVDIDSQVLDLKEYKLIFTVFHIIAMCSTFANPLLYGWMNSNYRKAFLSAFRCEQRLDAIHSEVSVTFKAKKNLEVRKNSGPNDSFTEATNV
# assay_notes: Affinity against Neuropeptide Y receptor Y2 in SK-N-BE2 cell line
Where a SMILES comes first, the peptide text is derived from it. The star is where a group is joined. X1 = C[C@@H](O)[C@@H](CN[C@@H](CCCN=C(N)N)C(=O)N[C@@H](CCC(N)=O)C(=O)N[C@@H](CCCN=C(N)N)C(=O)N[C@@H](Cc1ccc(O)cc1)C(N)=O)N*
Answers are plain numbers, as −log10 of the molar value.

CC(=O)N[C@@H](C)C(=O)N[C@@H](CO)C(=O)N[C@@H](CC(C)C)C(=O)N[C@@H](CCCN=C(N)N)C(=O)N[C@@H](Cc1c[nH]cn1)C(=O)N[C@@H](Cc1ccc(O)cc1)C(=O)N[C@@H](CC(C)C)C(=O)N[C@@H](CC(N)=O)C(=O)N[C@@H](CC(C)C)C(=O)N[C@H](C(=O)N[C@H](CN[C@@H](CCCN=C(N)N)C(=O)N[C@@H](CCC(N)=O)C(=O)N[C@@H](CCCN=C(N)N)C(=O)N[C@@H](Cc1ccc(O)cc1)C(N)=O)[C@@H](C)O)C(C)C (Ac-ASLRHYLNLV-X1) ... 7.28

Here is the next item to consider.
Reported pIC50 ( CC(=O)N[C@@H](C)C(=O)N[C@@H](CO)C(=O)N[C@@H](CC(C)C)C(=O)N[C@@H](CCCNC(=N)N)C(=O)N[C@@H](Cc1cnc[nH]1)C(=O)N[C@@H](Cc1ccc(O)cc1)C(=O)N[C@@H](CC(C)C)C(=O)N[C@@H](CC(N)=O)C(=O)N[C@@H](CC(C)C)C(=O)N[C@H](C(=O)N[C@H](C(=O)N[C@@H](CCCNC(=N)N)C(=O)N[C@@H](CCC(N)=O)C(=O)N[C@@H](CCCNC(=N)N)C(=O)N[C@@H](Cc1ccc(O)cc1)C(N)=O)[C@@H](C)O)C(C)C ) = 8.89

---

# tested_on: Neuropeptide Y receptor type 2 (Rattus norvegicus, UniProt Q9ERC0)
# assay_notes: Antisecretory potency, affinity for intestinal PYY of rat jejunum by using short circuit current (SCC) method.
# Type: tissue-based
*1 amine or outer side, *2 acyl side, *3 side chain or, on linkers, in order; H or OH if unused. Where a SMILES comes first, the peptide text is derived from it. Side-chain parts run from the residue outwards. [ ]: non-standard residue; d: D form. X4 = NC(N)=NCCC[C@@H](CN([C@@H](Cc1c[nH]cn1)C(=O)[*:2])[*:1])N[*:3]
metric_name: pIC50
Give bare numbers, as −log10 of the molar value.

CC(=O)N[C@@H](C)C(=O)N[C@@H](CO)C(=O)N[C@@H](CC(C)C)C(=O)N[C@@H](CCCNC(=N)N)C(=O)N[C@@H](Cc1cnc[nH]1)C(=O)N[C@@H](Cc1ccc(O)cc1)C(=O)N[C@@H](CC(C)C)C(=O)N[C@@H](CC(N)=O)C(=O)N[C@@H](CC(C)C)C(=O)N[C@H](C(=O)N[C@H](C(=O)N[C@@H](CCCNC(=N)N)C(=O)N[C@@H](CCC(N)=O)C(=O)N[C@@H](CCCNC(=N)N)C(=O)N[C@@H](Cc1ccc(O)cc1)C(N)=O)[C@@H](C)O)C(C)C ... 9.04

Consider the following items and state reported pIC50 for each.
1. CCCC[C@H](NC(=O)[C@H](CO)NC(=O)[C@H](C)NC(C)=O)C(=O)N[C@@H](CCCN=C(N)N)C(=O)N[C@@H](Cc1c[nH]cn1)C(=O)N[C@@H](Cc1ccc(O)cc1)C(=O)N[C@@H](CCCC)C(=O)N[C@@H](CC(N)=O)C(=O)N[C@@H](Cc1c[nH]c2ccccc12)C(=O)N[C@@H](CCC)C(=O)N[C@H](C(=O)N[C@@H](CCCN=C(N)N)C(=O)N[C@@H](CCC(N)=O)C(=O)N[C@@H](CCCN=C(N)N)CN[C@@H](Cc1ccc(O)cc1)C(N)=O)[C@@H](C)O
2. CC(=O)N[C@@H](C)C(=O)N[C@@H](CO)C(=O)N[C@@H](CC(C)C)C(=O)N[C@@H](CCCN=C(N)N)CN[C@@H](Cc1c[nH]cn1)C(=O)N[C@@H](Cc1ccc(O)cc1)C(=O)N[C@@H](CC(C)C)C(=O)N[C@@H](CC(N)=O)C(=O)N[C@@H](CC(C)C)C(=O)N[C@H](C(=O)N[C@H](C(=O)N[C@@H](CCCN=C(N)N)C(=O)N[C@@H](CCC(N)=O)C(=O)N[C@@H](CCCN=C(N)N)C(=O)N[C@@H](Cc1ccc(O)cc1)C(N)=O)[C@@H](C)O)C(C)C (H-[X4]([Leu-Ser-Ala-Ac])YLNLVTRQRY-NH2)
3. CCCC[C@H](NC(=O)[C@H](CO)NC(=O)[C@H](C)NC(C)=O)C(=O)N[C@@H](CCCNC(=N)N)C(=O)N[C@@H](Cc1cnc[nH]1)C(=O)N[C@@H](Cc1ccc(O)cc1)C(=O)N[C@@H](CCCC)C(=O)N[C@@H](CC(N)=O)C(=O)N[C@@H](Cc1c[nH]c2ccccc12)C(=O)N[C@@H](CCC)C(=O)N[C@H](C(=O)N[C@@H](CCCNC(=N)N)C(=O)N[C@@H](CCC(N)=O)C(=O)N[C@@H](CCCNC(=N)N)C(=O)N[C@@H](Cc1ccc(O)cc1)C(N)=O)[C@@H](C)O
4. CC(=O)N[C@@H](C)C(=O)N[C@@H](CO)C(=O)N[C@@H](CC(C)C)C(=O)N[C@@H](CCCNC(=N)N)C(=O)N[C@@H](Cc1cnc[nH]1)C(=O)N[C@@H](Cc1ccc(O)cc1)C(=O)N[C@@H](CC(C)C)C(=O)N[C@@H](CC(N)=O)C(=O)N[C@@H](Cc1c[nH]c2ccccc12)C(=O)N[C@H](C(=O)N[C@H](C(=O)N[C@@H](CCCNC(=N)N)C(=O)N[C@@H](CCC(N)=O)C(=O)N[C@@H](CCCNC(=N)N)CN[C@@H](Cc1ccc(O)cc1)C(N)=O)[C@@H](C)O)C(C)C

1. 9.51
2. 8.37
3. 9.25
4. 9.55

Data credit: ChEMBL document CHEMBL1133640
